test system: 598228-144-R-J1-PDC complex spheroids, viability; experiment: Anticancer human tumor 598228-144-R-J1-PDC patient-derived serous endometrial adenocarcinoma cell line growth inhibition [CLK]; conditions: curve of first compound; second compound 0.316 µM;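 note: spheroids exposed to compounds for seven days before readout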
Give measured IC50 for each item. Keep answers brief.
Kindly provide the numeric value in nM only, without the unit symbol.

query: Can you look up IC50 on 598228-144-R-J1-PDC complex spheroids, viability for COc1cccc2c1C(=O)c1c(O)c3c(c(O)c1C2=O)CC(O)(C(=O)CO)CC3OC1CC(N)C(O)C(C)O1 (stereo not given) + CNC(=O)c1ccc(Nc2nc(OC3CCCC3)c3c(-c4ccc5nc(C)oc5c4)c[nH]c3n2)c(OC)c1 ?
result: 227

query: # get_value(readout= IC50, system= 598228-144-R-J1-PDC complex spheroids, viability) for CCc1c2c(nc3ccc(O)cc13)-c1cc3c(c(=O)n1C2)COC(=O)[C@]3(O)CC + CNC(=O)c1ccc(Nc2nc(OC3CCCC3)c3c(-c4ccc5nc(C)oc5c4)c[nH]c3n2)c(OC)c1;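 note: spheroids exposed to compounds for seven days before readout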
result: 100
